Where these numbers come from: PubChem BioAssay (NCI)

test: NCI Yeast Anticancer Drug Screen. Data for the cln2 rad14 strain (AID 165);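 also: 0% = growth equal to vehicle treated cultures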; conditions: S. cerevisiae cln2 rad14 strain, at 50.0 µM, hits give high values
Compounds without any hit were thinned out: in the full panel of roughly 79,000, 15% have a hit.
Each record here notes measured growth inhibition.
Unit % implied. Number only.

Observe how each entry below is paired with its result.
molecule	growth inhibition (%)
CC(C)(CC(=O)O)CC(=O)O	23.8
CC(=O)Nc1ncc(S(=O)(=O)c2ccc([N+](=O)[O-])cc2)s1	-7.55
CCCCOC(=O)c1ccc(NC(=O)CCl)cc1	12.5
CCOc1ccc2c(c1)c(C)cc(C)[n+]2CC	-7.9
O=C1NC(=O)/C(=C\c2ccncc2)N1	9.3
CCNC(=O)Oc1ccc[nH]c1=O	-15.9
O=c1cc(Cl)nc2ccccn12	-52.3
Oc1cc2ccccc2c(-c2c(O)c(O)cc3ccccc23)c1O	83.6
CS(=O)CC(=N\O)/C(CS(C)=O)=N\O (stereo unspecified)	-8.85
CC1(C)CCC(C)(C)NC(=S)N1	1.9

Specify measured growth inhibition for CC(C)(N)CO[C@H]1C[C@H]2CC[C@@]1(C)C2(C)C . -26.4

Specify measured growth inhibition for CC(=O)N(C)N=Nc1ccc(C)cc1 . 4

Specify measured growth inhibition for CC(=O)OCC1CCC(COC(C)=O)CC1 (stereo unspecified) . -5.95

Specify measured growth inhibition for O=C(NCCc1ccccc1)/C(=C\c1ccc(Cl)cc1Cl)NC(=O)c1ccccc1 . -5.95

Specify measured growth inhibition for Cc1cc(CO)c(O)c(CO)c1 . -5.05

Specify measured growth inhibition for CCOC(=O)CNC . -4.5

Specify measured growth inhibition for COC(C(=O)C(O)C(C)O)C1Cc2cc3cc(OC4CC(OC5CC(O)C(O)C(C)O5)C(O)C(C)O4)c(C)c(O)c3c(O)c2C(=O)C1OC1CC(OC2CC(O)C(OC3CC(C)(O)C(O)C(C)O3)C(C)O2)C(O)C(C)O1 (stereo unspecified) . 6.95

Specify measured growth inhibition for COC(CCCl)c1ccc(Cl)cc1 (stereo unspecified) . -4.5

Specify measured growth inhibition for O=C1C=CC(=O)C2=C1CCCC2 . -9.75

---

test: NCI Yeast Anticancer Drug Screen. Data for the cln2 rad14 strain (AID 165);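 also: 0% = growth equal to vehicle treated cultures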; details: S. cerevisiae cln2 rad14 strain, at 50.0 µM, hits give high values
About 79,000 compounds went through this panel and 15% of them were active in at least one assay; those are over-represented in the sample as a whole.
property.measured: growth inhibition (%)
Unit % implied. Number only.

Observe how each entry below is paired with its result.
compound	unit.spec	growth inhibition
O=C(OCC1CCCO1)c1ccc([N+](=O)[O-])cc1 (stereo unspecified)	%	9.7
CCCCCCCCCCC(=O)CCCCCCCCCC	%	16.8
C=CC(C)(C)n1cc(C2=C(O)C(=O)C(c3cn(C(C)(C)C=C)c4ccccc34)=C(O)C2=O)c2ccccc21	%	4.7
C#CCSc1nnnn1-c1ccccc1	%	19.4
CNc1ccccc1C(=O)N/N=C/C=C/c1ccccc1	%	2.65

Specify measured growth inhibition for NNc1ncnc2c1ncn2C1OC(CO)C(O)C1O (stereo unspecified) . -21.9

Specify measured growth inhibition for N#CCCN1C(=O)CCC1C(=O)O (stereo unspecified) . -6.15

Specify measured growth inhibition for CC(=O)C1C(=O)C(=O)N(c2ccc(Cl)c(Cl)c2)C1=O (stereo unspecified) . -14.4

Specify measured growth inhibition for CCOc1ccc(C(=O)O)cc1 . 4.85

Specify measured growth inhibition for Cc1ccc(C)c(CN(C)C)c1O . 25.1

Specify measured growth inhibition for CC(c1ccccc1)N1C(=O)CSC1=S (stereo unspecified) . 35.8

Specify measured growth inhibition for Cc1ccc([N+](=O)[O-])c(C)n1 . 27.1

Specify measured growth inhibition for Cc1cc(C(=O)NN)c(C#N)c(=O)[nH]1 . -17.5

Specify measured growth inhibition for Oc1ccc(N=Cc2ccc(OCc3ccccc3)cc2)cc1 . 0.25

Specify measured growth inhibition for NC(=S)N/N=C/c1ccc(Cl)cc1 . 13.4

Specify measured growth inhibition for NNC(=O)c1ccccc1N . -11.2

---

test: NCI Yeast Anticancer Drug Screen. Data for the mlh1 rad18 strain (AID 175); settings: S. cerevisiae mlh1 rad18 strain growth inhibition; at 50.0 µM; hits give high values
This is part of a sample that, as a whole, favours compounds with a hit. Of some 79,000 tested, about 15% had one in any assay.
property.measured: growth inhibition (%)
Unit % implied. Number only.

Observe how each entry below is paired with its result.
compound	property.measured	assay.result
CC(=O)OC/C(C)=C\CC(C)COC(C)=O (configuration not stated)	growth inhibition	-0.75
Cc1cccnc1NC1OC(=O)c2ccccc21 (configuration not stated)	growth inhibition	-9.65
CCCCCC/C=C\CCCCCCCCCc1cc(O)cc(OC)c1O	growth inhibition	13.2
COc1ccc2c(c1)Nc1ccccc1S2	growth inhibition	-16.2
C(=C\c1ccncc1)/c1ccncc1	growth inhibition	23.6
CCNC(=O)OCCc1c2ccccc2nc2ccccc12	growth inhibition	54.2

Now for another entry.
Specify measured growth inhibition for Clc1ccc(-c2noc(/C=C\c3ccccc3)n2)cc1 . 7.45

---

assay: NCI Yeast Anticancer Drug Screen. Data for the mlh1 rad18 strain (AID 175); settings: S. cerevisiae mlh1 rad18 strain growth inhibition; at 50.0 µM; hits give high values
The panel holds about 79,000 compounds, 15% with a hit somewhere; the sample as a whole holds those more often.
Each record here notes measured growth inhibition.
Unit % implied. Number only.

Observe how each entry below is paired with its result.
compound	unit.spec	growth inhibition
COc1ccc(/C=C\C(=O)/C=C/c2ccc(OC)cc2)cc1	%	0
C1=NCCc2ccccc21	%	15.2
CCC1CCC(C)NC1 (stereo not given)	%	21.8
NC(=O)OCCO	%	26.5

Now for another entry.
Specify measured growth inhibition for O=C1C=CC(=O)C2=C1CCCC2 . 26.9

---

assay: NCI Yeast Anticancer Drug Screen. Data for the sgs1 mgt1 strain (AID 161);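 also: 0% = growth of cultures given vehicle only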; conditions: S. cerevisiae sgs1 mgt1 strain, at 50.0 µM, hits give high values
The panel holds about 79,000 compounds, 15% with a hit somewhere; the sample as a whole holds those more often.
Each record here notes measured growth inhibition.
Unit % implied. Number only.

Observe how each entry below is paired with its result.
compound	unit.spec	assay.result
O=C(NC(=S)N1CC=CCC1)c1ccccc1	%	26.4
Cc1nc(O)cc(=O)[nH]1	%	-14.2
O=C(O)c1ccc(OCc2ccccc2)cc1	%	38
CCC(C)c1c(N)n(S(=O)(=O)c2ccc(C)cc2)oc1=O (stereo not drawn)	%	6.4
O=CNCCc1ccccc1	%	6.85

Specify measured growth inhibition for c1ccc(Oc2c3ccccc3nc3ccccc23)cc1 . -13.2

Specify measured growth inhibition for O=C(O)c1c[nH]c2ccccc2c1=O . 5.7

Specify measured growth inhibition for CC(=O)NC(CCc1ccc(Cl)c(Cl)c1)c1cccc(O)c(=O)c1 (stereo not drawn) . 86

Specify measured growth inhibition for CC(C)N1CC(=O)N2CSCC2C1=O (stereo not drawn) . 9.8

Specify measured growth inhibition for C/C(=N\N=C(/C)c1cccc([N+](=O)[O-])c1)c1cccc([N+](=O)[O-])c1 . 17.5

Specify measured growth inhibition for CCNC(=O)OCCc1c2ccccc2nc2ccccc12 . 42.4

Specify measured growth inhibition for CC(C)c1ncc([N+](=O)[O-])n1C . -16.6

Specify measured growth inhibition for CCCC(=O)CC(=O)c1ccccc1 . -3.75

---

Each record here notes measured growth inhibition.
Test: NCI Yeast Anticancer Drug Screen. Data for the rad50 strain (AID 155);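 also: 0% = growth of vehicle-only cultures of the same strain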
Conditions: S. cerevisiae rad50 strain growth inhibition; at 50.0 µM; hits give high values
Method: Growth inhibition of yeast strains with defined genetic alterations is measured as a screen for potential anti-cancer activity. Selected strains with alterations in DNA damage repair or cell cycle control were exposed to compounds and growth inhibition was measured relative to vehicle treated controls. The strain used in this assay is rad50
This is part of a sample that, as a whole, favours compounds with a hit. Of some 79,000 tested, about 15% had one in any assay.
Unit % implied. Number only.

Observe how each entry below is paired with its result.
molecule	assay.result
CN1C(=O)NC(c2ccc(Cl)cc2)(c2ccc(Cl)cc2)C1=O	44.9
C[n+]1cc2cc3c(cc2c2ccccc21)OCO3	23.5
CC(=O)c1cccc(O)c1	5.8

Specify measured growth inhibition for C=C1C(=O)C2CCN1CC2 . 1.05

Specify measured growth inhibition for CCC(/C=C\C(C)=O)CC . -28.3

Specify measured growth inhibition for O=C1NC(=O)C(c2ccccc2)O1 (stereo not given) . -3.9

Specify measured growth inhibition for FC(F)(F)c1cc(NC2=NCCN=C(Nc3cc(C(F)(F)F)cc(C(F)(F)F)c3)SS2)cc(C(F)(F)F)c1 . -14.1

Specify measured growth inhibition for CCOC(=O)C(=O)CC(=O)c1ccccc1 . 8.65

Specify measured growth inhibition for CC(CCC#N)(CCC#N)C(=O)c1ccccc1 . 28.6

Specify measured growth inhibition for Cc1ccc(Cc2ccc(C)cc2)cc1 . -30.2

Specify measured growth inhibition for Nc1ccn(C2CC(N)C(CO)O2)c(=O)n1 (stereo not given) . 16.1

Specify measured growth inhibition for C=CCc1cc(OC)c(OC)c(OC)c1 . 7.8

Specify measured growth inhibition for Oc1cc(O)c2c(c1)O[C@H](c1ccc(O)c(O)c1)[C@@H](O)C2 . 0.9

Specify measured growth inhibition for CCOP(=O)(OCC)/C(=C\N1C(=O)CC(=O)NC1=S)C(=O)OC . -29.9
